Origin of values: patent US8658604B2

# System: Tryptase, from human lung
# procedure.summary: Enzymatic assay, tryptase
# test.settings: at 100 μM
Where a SMILES comes first, the peptide text is derived from it.
measured.metric: Tryptase at 100 μM %
Your reply should be a number followed by the unit it is expressed in.

CCCCCCCC[C@@H]1NC(=O)[C@@H]2CCCN2C(=O)[C@H]2CCCN2C(=O)[C@H](Cc2ccc(O)cc2)NC(=O)[C@@H]2CSSC[C@H](NC1=O)C(=O)N[C@@H]([C@@H](C)O)C(=O)N[C@@H](C)C(=O)N[C@@H](CO)C(=O)N[C@@H]([C@@H](C)CC)C(=O)N1CCC[C@H]1C(=O)N1CCC[C@H]1C(=O)N[C@@H](CCC(N)=O)C(=O)N2 [Ex. 102] (HELM PEPTIDE1{[CCCCCCCC[C@H](N[*:1])C(=O)[*:2]].C.T.A.S.I.P.P.Q.C.Y.[dP].P}$PEPTIDE1,PEPTIDE1,2:R3-10:R3|PEPTIDE1,PEPTIDE1,1:R1-13:R2$$$V2.0) = 0%

Then there is this molecule:
GET /values?readout=Tryptase at 100 μM %&item= CCCC[C@@H]1NC(=O)[C@@H]2CCCN2C(=O)[C@H]2CCCN2C(=O)[C@H](Cc2ccc(O)cc2)NC(=O)[C@@H]2CSSC[C@H](NC1=O)C(=O)N[C@@H]([C@@H](C)O)C(=O)N[C@@H](C)C(=O)N[C@@H](CO)C(=O)N[C@@H]([C@@H](C)CC)C(=O)N1CCC[C@H]1C(=O)N1CC(NC(=O)c3ccccc3)C[C@H]1C(=O)N[C@@H](CCC(N)=O)C(=O)N2 (single isomer, unassigned) [Ex. 88] 0.6%

* * *

# assayed.system: Thrombin, from Human Plasma (Homo sapiens, UniProt P00734)
# procedure.summary: Enzymatic assay, thrombin
Where a SMILES comes first, the peptide text is derived from it.
measured.metric: Thrombin at 100 μM % (%)
Numbers only, in %.

Sample answers from the record:
CC[C@H](C)[C@@H]1NC(=O)[C@@H]2CCCN2C(=O)[C@@H]2CCCN2C(=O)[C@H](CC(=O)O)NC(=O)[C@H](CO)NC(=O)[C@H](CCCCN)NC(=O)[C@H]([C@@H](C)O)NC(=O)[C@@H]2CSSC[C@H](NC1=O)C(=O)N[C@@H](CO)C(=O)N[C@H](C)C(=O)N[C@@H](CC(=O)O)C(=O)N[C@@H](Cc1ccccc1)C(=O)N2 [Ex. 68] (HELM PEPTIDE1{F.C.T.K.S.D.P.P.I.C.S.[dA].D}$PEPTIDE1,PEPTIDE1,2:R3-10:R3|PEPTIDE1,PEPTIDE1,1:R1-13:R2$$$V2.0) = 5.4
CC[C@H](C)[C@@H]1NC(=O)[C@H](CO)NC(=O)[C@H](C)NC(=O)[C@H]([C@@H](C)O)NC(=O)[C@@H]2CSSC[C@H](NC(=O)[C@H](CCC(N)=O)NC(=O)[C@@H]3CCCN3C(=O)[C@@H]3CCCN3C1=O)C(=O)N[C@@H](Cc1ccc(O)cc1)C(=O)N1CCC[C@@H]1C(=O)N1CCC[C@H]1C(=O)N[C@@H](CCc1ccccc1)C(=O)N2 [Ex. 103] (HELM PEPTIDE1{[O=C([C@H](CCc1ccccc1)N[*:1])[*:2]].C.T.A.S.I.P.P.Q.C.Y.[dP].P}$PEPTIDE1,PEPTIDE1,2:R3-10:R3|PEPTIDE1,PEPTIDE1,1:R1-13:R2$$$V2.0) = 10.2
CCCCCCCC[C@@H]1NC(=O)[C@@H]2CCCN2C(=O)[C@H]2CCCN2C(=O)[C@H](Cc2ccc(O)cc2)NC(=O)[C@H](CCCCN)NC(=O)[C@H](CCC(N)=O)NC(=O)[C@@H]2CCCN2C(=O)[C@@H]2CCCN2C(=O)[C@H]([C@@H](C)CC)NC(=O)[C@H](CO)NC(=O)[C@H](C)NC(=O)[C@H]([C@@H](C)O)NC(=O)[C@H](CCC(=O)O)NC1=O [Ex. 156] (HELM PEPTIDE1{[CCCCCCCC[C@H](N[*:1])C(=O)[*:2]].E.T.A.S.I.P.P.Q.K.Y.[dP].P}$PEPTIDE1,PEPTIDE1,1:R1-13:R2$$$V2.0) = 17

Then there is this compound:
// fetch Thrombin, from Human Plasma (Homo sapiens, UniProt P00734) Thrombin at 100 μM % for CC[C@H](C)[C@@H]1NC(=O)[C@@H]2CCCN2C(=O)[C@@H]2CCCN2C(=O)[C@H](CC(=O)O)NC(=O)[C@H](CO)NC(=O)[C@H](CCCCN)NC(=O)[C@H]([C@@H](C)O)NC(=O)[C@@H]2CSSC[C@H](NC1=O)C(=O)N[C@@H](CC(N)=O)C(=O)N1CCC[C@@H]1C(=O)N1CCC[C@H]1C(=O)N[C@@H](Cc1ccc(N)cc1)C(=O)N2 [Ex. 31] (HELM PEPTIDE1{[Nc1ccc(C[C@H](N[*:1])C(=O)[*:2])cc1].C.T.K.S.D.P.P.I.C.N.[dP].P}$PEPTIDE1,PEPTIDE1,2:R3-10:R3|PEPTIDE1,PEPTIDE1,1:R1-13:R2$$$V2.0) 10

* * *

# Tested on: Tryptase, from human lung
# procedure.summary: Enzymatic assay, tryptase
# test.settings: at 100 μM
Where a SMILES comes first, the peptide text is derived from it.
I'd be grateful if you could share measured Tryptase at 100 μM % for these entries.
Numbers only, in %.

Sample answers from the record:
CCCC[C@@H]1NC(=O)[C@@H]2CCCN2C(=O)[C@H]2CCCN2C(=O)[C@H]([C@@H](C)O)NC(=O)[C@@H]2CSSC[C@H](NC1=O)C(=O)N[C@@H]([C@@H](C)O)C(=O)N[C@@H](CCCCN)C(=O)N[C@@H](CO)C(=O)N[C@@H](CC(=O)O)C(=O)N1CCC[C@H]1C(=O)N1CCC[C@H]1C(=O)N[C@@H]([C@@H](C)CC)C(=O)N2 [Ex. 42] (HELM PEPTIDE1{[Nle].C.T.K.S.D.P.P.I.C.T.[dP].P}$PEPTIDE1,PEPTIDE1,2:R3-10:R3|PEPTIDE1,PEPTIDE1,1:R1-13:R2$$$V2.0) = 0
CCCCCC[C@@H]1NC(=O)[C@@H]2CCCN2C(=O)[C@H]2CCCN2C(=O)[C@H](Cc2ccc(O)cc2)NC(=O)[C@@H]2CSSC[C@H](NC1=O)C(=O)N[C@@H]([C@@H](C)O)C(=O)N[C@@H](C)C(=O)N[C@@H](CO)C(=O)N[C@@H]([C@@H](C)CC)C(=O)N1CCC[C@H]1C(=O)N1CCC[C@H]1C(=O)N[C@@H](CCC(N)=O)C(=O)N2 [Ex. 99] (HELM PEPTIDE1{[CCCCCC[C@H](N[*:1])C(=O)[*:2]].C.T.A.S.I.P.P.Q.C.Y.[dP].P}$PEPTIDE1,PEPTIDE1,2:R3-10:R3|PEPTIDE1,PEPTIDE1,1:R1-13:R2$$$V2.0) = 0
CC[C@H](C)[C@@H]1NC(=O)[C@@H]2CCCN2C(=O)[C@H]2CCCN2C(=O)[C@H](CCCNC(=N)N)NC(=O)[C@@H]2CSSC[C@H](NC1=O)C(=O)N[C@@H]([C@@H](C)O)C(=O)N[C@@H](CCCCN)C(=O)N[C@@H](CO)C(=O)N[C@@H](CC(=O)O)C(=O)N1CCC[C@H]1C(=O)N1CCC[C@H]1C(=O)N[C@@H](CCC(N)=O)C(=O)N2 [Ex. 17] (HELM PEPTIDE1{I.C.T.K.S.D.P.P.Q.C.R.[dP].P}$PEPTIDE1,PEPTIDE1,2:R3-10:R3|PEPTIDE1,PEPTIDE1,1:R1-13:R2$$$V2.0) = 90.4

GET /values?readout=Tryptase at 100 μM %&item= CC[C@H](C)[C@@H]1NC(=O)[C@@H]2CCCN2C(=O)[C@@H]2CCCN2C(=O)[C@H](CC(=O)O)NC(=O)[C@H](CO)NC(=O)[C@H](CCCCN)NC(=O)[C@H]([C@@H](C)O)NC(=O)[C@@H]2CSSC[C@H](NC1=O)C(=O)N[C@@H](Cc1ccc(O)cc1)C(=O)N1CCC[C@@H]1C(=O)N1CCC[C@H]1C(=O)N[C@@H](Cc1ccc(O)cc1)C(=O)N2 [Ex. 26] (HELM PEPTIDE1{Y.C.T.K.S.D.P.P.I.C.Y.[dP].P}$PEPTIDE1,PEPTIDE1,2:R3-10:R3|PEPTIDE1,PEPTIDE1,1:R1-13:R2$$$V2.0) 66.4

* * *

I'd be grateful if you could share measured Chymase at 100 μM % for these entries.
# assayed.system: UniProt:P23946
# Sequence (P23946 22-247): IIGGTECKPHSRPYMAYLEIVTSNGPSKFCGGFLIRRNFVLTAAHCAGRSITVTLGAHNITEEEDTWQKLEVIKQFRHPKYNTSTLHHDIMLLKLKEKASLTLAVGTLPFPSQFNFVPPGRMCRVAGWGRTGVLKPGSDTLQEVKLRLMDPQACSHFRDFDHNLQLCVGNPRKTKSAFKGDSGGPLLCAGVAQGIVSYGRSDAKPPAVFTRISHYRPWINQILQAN
# procedure.summary: Enzymatic assay, chymase
Where a SMILES comes first, the peptide text is derived from it.
One number for each entry, in %.

CC[C@H](C)[C@@H]1NC(=O)[C@@H]2CCCN2C(=O)[C@@H]2CCCN2C(=O)[C@H](CC(=O)O)NC(=O)[C@H](CO)NC(=O)[C@H](CCCCN)NC(=O)[C@H]([C@@H](C)O)NC(=O)[C@@H]2CSSC[C@H](NC1=O)C(=O)N[C@@H]([C@@H](C)O)C(=O)N1CCC[C@@H]1C(=O)N1CCC[C@H]1C(=O)N[C@@H](C1CCCCC1)C(=O)N2 [Ex. 38] (HELM PEPTIDE1{[O=C([C@@H](N[*:1])C1CCCCC1)[*:2]].C.T.K.S.D.P.P.I.C.T.[dP].P}$PEPTIDE1,PEPTIDE1,2:R3-10:R3|PEPTIDE1,PEPTIDE1,1:R1-13:R2$$$V2.0) = 1

GET /values?readout=Chymase at 100 μM %&item= CC[C@H](C)[C@@H]1NC(=O)[C@@H]2CCCN2C(=O)[C@@H]2CCCN2C(=O)[C@H](CC(=O)O)NC(=O)[C@H](CO)NC(=O)[C@H](CCCCN)NC(=O)[C@H]([C@@H](C)O)NC(=O)[C@@H]2CSSC[C@H](NC1=O)C(=O)N[C@@H](Cc1ccc(O)cc1)C(=O)N1CCC[C@@H]1C(=O)N1CCC[C@H]1C(=O)N[C@@H](Cc1ccccc1)C(=O)N2 [Ex. 5] (HELM PEPTIDE1{F.C.T.K.S.D.P.P.I.C.Y.[dP].P}$PEPTIDE1,PEPTIDE1,2:R3-10:R3|PEPTIDE1,PEPTIDE1,1:R1-13:R2$$$V2.0) 0
